- System: Escherichia coli TOP10
- experiment_description: shrunken log2 fold change of peptide-encoding DNA abundance (4.5 h post-induction vs induction); higher = less antimicrobial activity (less host growth inhibition)
- applied_conditions: time post-induction: 4.5 h; library: site-saturation at positions 5, 18, 19, 20
measurement_name: shrunken log2 fold change
Output: the number by itself.

sequence=RRIRNRPPRLPRPRPRPGIVPRP readout_number=0.367
sequence=RRIRHRPPRLPRPRPRPLWIPRP readout_number=-0.505
sequence=RRIRQRPPRLPRPRPRPCREPRP readout_number=-0.0541

Request - read-out shrunken log2 fold change | tested on Escherichia coli TOP10 | sequence `RRIRPRPPRLPRPRPRPGITPRP`
-0.138

Return shrunken log2 fold change measured with Escherichia coli TOP10 given this sequence: `RRIRQRPPRLPRPRPRPYFGPRP`
-0.305

Lab request: please report shrunken log2 fold change under test system Escherichia coli TOP10 for `RRIRYRPPRLPRPRPRPNMQPRP`
-0.594

# query: shrunken log2 fold change | item `RRIRFRPPRLPRPRPRPIPHPRP` | system: Escherichia coli TOP10
-0.31

# get_value(readout= shrunken log2 fold change, system= Escherichia coli TOP10) for `RRIRIRPPRLPRPRPRPPGHPRP`
0.11

Lab note: need shrunken log2 fold change for `RRIRSRPPRLPRPRPRPGLIPRP` on Escherichia coli TOP10, anyone have it?
0.142

For the record `RRIRKRPPRLPRPRPRPFNCPRP` , what value of shrunken log2 fold change is listed for Escherichia coli TOP10?
0.0153

What measured shrunken log2 fold change is associated with `RRIRSRPPRLPRPRPRPCFWPRP` on Escherichia coli TOP10?
0.294

Please provide the recorded shrunken log2 fold change for `RRIRDRPPRLPRPRPRPKCRPRP` , tested on Escherichia coli TOP10.
-0.00674

Lookup: shrunken log2 fold change / Escherichia coli TOP10 / `RRIRHRPPRLPRPRPRPLMGPRP`
0.11

Request body: readout shrunken log2 fold change, system Escherichia coli TOP10, query `RRIRARPPRLPRPRPRPVQGPRP` . Return the value.
0.47

Fill in the recorded shrunken log2 fold change for this sequence, with Escherichia coli TOP10 as test system: `RRIRQRPPRLPRPRPRPQILPRP`
-0.132

What shrunken log2 fold change appears in the records for this sequence with Escherichia coli TOP10? `RRIRVRPPRLPRPRPRPGTPPRP`
-0.00585

Any idea what shrunken log2 fold change came out for `RRIRCRPPRLPRPRPRPMTKPRP` on Escherichia coli TOP10?
0.0306

Under Escherichia coli TOP10: shrunken log2 fold change value of `RRIRLRPPRLPRPRPRPIKHPRP` ?
-0.821

Find the measured shrunken log2 fold change: item `RRIRVRPPRLPRPRPRPPFCPRP` , target or system Escherichia coli TOP10.
1.39

---

The sequences listed here are annotated with their shrunken log2 fold change.
- Tested on: Escherichia coli TOP10;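 further: peptides expressed intracellularly from a pBAD plasmid library in pooled LB shake-flask culture, induced with 0.3% L-arabinose, DNA abundance read by NGS, three biological replicates, DESeq2 with apeglm shrinkage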
- experiment_description: shrunken log2 fold change of peptide-encoding DNA abundance (4.5 h post-induction vs induction); higher = less antimicrobial activity (less host growth inhibition)
- applied_conditions: time post-induction: 4.5 h; library: site-saturation at positions 5, 18, 19, 20
In your answer, state the number alone without any accompanying words.

sequence=RRIRRRPPRLPRPRPRPYCPPRP assay_target="Escherichia coli TOP10" readout_number=-0.187

Look at this sequence and give its reported shrunken log2 fold change. `RRIRDRPPRLPRPRPRPMFLPRP`
0.0737

# get_value(readout='shrunken log2 fold change', item= `RRIRDRPPRLPRPRPRPHAQPRP` )
-0.0623

Need shrunken log2 fold change, item `RRIRLRPPRLPRPRPRPESIPRP`
0.0419

Which value of shrunken log2 fold change has been reported for `RRIRDRPPRLPRPRPRPHNCPRP` in the records?
0.0686
